target: T1, AFP158/HLA-A*02:01 complex (human); experiment: SPR, scFv-mIgG2aFc from supernatant captured, complex as analyte
T1 construct: biotinylated on the BSP by BirA for ELISA and panning; also called biotinylated AFP158/HLA-A*02:01 complex; Bio-AFP158
property: koff (s⁻¹)
Give bare numbers, in s⁻¹.

Here is how some binders turned out for koff.
AS179723 VL1VH1 scFv-mIgG2aFc (Fc fusion, not shown: a dimerising Fc or GST) scFv: QSVLTQPPSASGTPGQRVTISCTGSSNNIGGNYVNWYQQLPGTAPKLLIYDNKNRPSGVPDRFSGSKSGTSASLAISGLQSEDEADYYCASWDDSLSAVVFGGGTKLTVLGGGGSGGGGSGGGGSEVQLVESGGGLVQPGGSLRLSCAASGFTFLNYAMSWVRQAPGKGLEWVSSNSGAGSTYYSDSVKGRFTISRDNSKNTLYLQMNSLRAEDTAVYYCAKGTNVGSWSSLHYWGQGTLVTVSS :: 0.031
AS179723 VL1g1VH1 scFv-mIgG2aFc (Fc fusion, not shown: a dimerising Fc or GST) scFv: QSVLTQPPSASGTPGQRVTISCSGSSNNIGGNYVNWYQQLPGTAPKLLIYDNKNRPSGVPDRFSGSKSGTSASLAISGLQSEDEADYYCASWDDSLSAVVFGGGTKLTVLGGGGSGGGGSGGGGSEVQLVESGGGLVQPGGSLRLSCAASGFTFLNYAMSWVRQAPGKGLEWVSSNSGAGSTYYSDSVKGRFTISRDNSKNTLYLQMNSLRAEDTAVYYCAKGTNVGSWSSLHYWGQGTLVTVSS :: 0.034
AS179723 scFv-mIgG2aFc (Fc fusion, not shown: a dimerising Fc or GST, Camel scFv; i647-labelled for flow cytometry) QAGLTQPPSMSGSPRQSVTISCTGSSNNIGGNYVNWYQHLPGTAPKLLIYDNKNRPSGVPEQISGSKSGSSASLTITGLQAEDEGDYYCASWDDSLSAVVFGGGTHLTVLGGGGSGGGGSGGGGSEVQLVESGGGLVQPGGSLRLSCAASGFTFLNYAMSWVRQAPGKGLEWVSSNSGAGSTYYSDSVKGRFTISRDYAKNVVYLQLNSLKTEDTGMYYCAKGTNVGSWSSLHYWGQGTQVTVSS :: 0.0041

What the record says about AS179723 VL1VH1g1 scFv-mIgG2aFc (Fc fusion, not shown: a dimerising Fc or GST) scFv: QSVLTQPPSASGTPGQRVTISCTGSSNNIGGNYVNWYQQLPGTAPKLLIYDNKNRPSGVPDRFSGSKSGTSASLAISGLQSEDEADYYCASWDDSLSAVVFGGGTKLTVLGGGGSGGGGSGGGGSEVQLVESGGGLVQPGGSLRLSCAASGFTFLNYAMSWVRQAPGKGLEWVSSNSGAGSTYYADSVKGRFTISRDNSKNTLYLQMNSLRAEDTAVYYCAKGTNVGSWSSLHYWGQGTLVTVSS : koff is 0.03

FYI, the data here is from patent US20240279318A1.
